Value source: patent US10336739B2

List of pEC50 values.
- MEASUREMENT TARGET: human APJ receptor (Homo sapiens (Human))
- ASSAY SUMMARY: Intracellular cAMP accumulation assay (APJ hcAMP, HTRF)
- Format: cell-based
- TEST PARAMETERS: HEK293 cells stably expressing human APJ receptor; inhibition of forskolin-mediated cAMP production; read-out: hAPJ cAMP EC50 Potency range
pEC50: −log10 of the molar value.

Examples with their reported pEC50 follow.
{"COMPOUND": "CCOCc1[nH]c(=O)c(-c2nnc(Cc3ccc(Cl)nc3)o2)c(O)c1-c1c(OC)cccc1OC [Example 110]", "ASSAY METRIC": "pEC50", "VALUE MEASURED": "8.00 to 11.00"}
{"COMPOUND": "CCCCc1nc(O)c(-c2nnc(C(C)(C)Cc3ccccc3)o2)c(O)c1-c1c(OC)cccc1OC [Example 64]", "ASSAY METRIC": "pEC50", "VALUE MEASURED": "8.00 to 11.00"}
{"COMPOUND": "CCCCc1nc(O)c(-c2nnc(CCc3nccn3C)o2)c(O)c1-c1c(OC)cccc1OC [Example 29]", "ASSAY METRIC": "pEC50", "VALUE MEASURED": "8.00 to 11.00"}

Please give the measured pEC50 for this compound: CCCCc1nc(O)c(-c2nnc(Cc3ccc(F)c(F)c3)o2)c(O)c1-c1cccc(OC(F)(F)F)c1 [Example 141] 7.00 to 8.00

Field entry: CCCCc1nc(O)c(-c2nnc(CC(=O)NCCC)o2)c(O)c1-c1c(OC)cccc1OC [Example 189] 8.00 to 11.00

Next up: CCOCc1nc(O)c(-c2nnc(Cn3ccnc3)o2)c(O)c1-c1c(OC)cccc1OC [Example 125] 7.00 to 8.00

Repeat for the following compound: CCCCc1nc(O)c(-c2nnc(COc3ccc(C(F)(F)F)cc3)o2)c(O)c1-c1c(OC)cccc1OC [Example 65] 7.00 to 8.00

Note, next up: CCCCc1nc(O)c(-c2nnc(CCc3nc(-c4ccc(OC)cc4)no3)o2)c(O)c1-c1c(OC)cccc1OC [Example 60] 7.00 to 8.00

###

// pEC50 lookup, one value per entry
- MEASUREMENT TARGET: human APJ receptor (Homo sapiens (Human), UniProt P35414)
- Sequence (P35414 whole entry): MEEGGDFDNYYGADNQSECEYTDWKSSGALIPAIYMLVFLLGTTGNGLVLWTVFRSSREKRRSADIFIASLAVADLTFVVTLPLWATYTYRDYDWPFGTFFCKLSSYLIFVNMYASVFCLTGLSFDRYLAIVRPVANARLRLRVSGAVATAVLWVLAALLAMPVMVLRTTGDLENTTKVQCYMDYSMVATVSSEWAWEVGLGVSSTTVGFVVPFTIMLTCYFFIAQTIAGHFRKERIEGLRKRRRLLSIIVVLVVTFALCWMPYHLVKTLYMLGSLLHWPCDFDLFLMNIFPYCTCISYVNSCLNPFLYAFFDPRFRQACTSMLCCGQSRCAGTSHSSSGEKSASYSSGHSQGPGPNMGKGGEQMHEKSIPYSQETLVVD
- ASSAY SUMMARY: Intracellular cAMP accumulation assay (APJ hcAMP, HTRF)
- Format: cell-based
- TEST PARAMETERS: HEK293 cells stably expressing human APJ receptor; inhibition of forskolin-mediated cAMP production; read-out: hAPJ cAMP EC50 Potency range
pEC50: −log10 of the molar value.

Worked cases, pEC50 given:
{"SMILES NOTATION": "CCCCc1nc(O)c(-c2nnc(C3CC3)o2)c(O)c1-c1c(OC)cccc1OC", "MEASUREMENT TARGET": "human APJ receptor (Homo sapiens (Human), UniProt P35414)", "ASSAY METRIC": "pEC50", "VALUE MEASURED": "6.52 to 7.00"}
{"SMILES NOTATION": "CCCCc1nc(O)c(-c2nnc(CC(=O)NC)o2)c(O)c1-c1c(OC)cccc1OC", "MEASUREMENT TARGET": "human APJ receptor (Homo sapiens (Human), UniProt P35414)", "ASSAY METRIC": "pEC50", "VALUE MEASURED": "8.00 to 11.00"}
{"SMILES NOTATION": "CCCCc1nc(O)c(-c2nnc(C3(c4ccccc4)CC3)o2)c(O)c1-c1c(OC)cccc1OC", "MEASUREMENT TARGET": "human APJ receptor (Homo sapiens (Human), UniProt P35414)", "ASSAY METRIC": "pEC50", "VALUE MEASURED": "7.00 to 8.00"}
{"SMILES NOTATION": "CCCCc1nc(O)c(-c2nnc(CC(=O)NCC(F)(F)F)o2)c(O)c1-c1c(OC)cccc1OC", "MEASUREMENT TARGET": "human APJ receptor (Homo sapiens (Human), UniProt P35414)", "ASSAY METRIC": "pEC50", "VALUE MEASURED": "8.00 to 11.00"}

Item CCCCc1nc(O)c(-c2nnc(Cc3noc4ccccc34)o2)c(O)c1-c1c(OC)cccc1OC with human APJ receptor (Homo sapiens (Human), UniProt P35414) - pEC50? 8.00 to 11.00

How about this compound: CCCCc1nc(O)c(-c2nnc(CCc3ccccc3)o2)c(O)c1-c1c(OC)cccc1OC 7.00 to 8.00

Also CCCCc1nc(O)c(-c2nnc(CN3C(=O)CNC3=O)o2)c(O)c1-c1c(OC)cccc1OC , if possible. 7.00 to 8.00

###

- MEASUREMENT TARGET: human APJ receptor (Homo sapiens (Human))
- ASSAY SUMMARY: Intracellular cAMP accumulation assay (APJ hcAMP, HTRF)
- Assay type: cell-based
- TEST PARAMETERS: HEK293 cells stably expressing human APJ receptor; inhibition of forskolin-mediated cAMP production; read-out: hAPJ cAMP EC50 Potency range
ASSAY METRIC: EC50

// worked examples, EC50 included
{"SMILES NOTATION": "C=CCCc1nc(O)c(-c2nnc(Cc3noc4ccccc34)o2)c(O)c1-c1c(OC)cccc1OC", "EC50": "0.01 to 10 nM"}
{"SMILES NOTATION": "CCCCc1nc(O)c(-c2nnc(CN3CCOCC3=O)o2)c(O)c1-c1c(OC)cccc1OC", "EC50": "0.01 to 10 nM"}

// EC50 lookup, key: CCCCc1nc(O)c(-c2nnc(Cc3csc(-c4ccccc4)n3)o2)c(O)c1-c1c(OC)cccc1OC 0.01 to 10 nM

Item: CCCCc1nc(O)c(-c2nnc(Cc3nnc(Cc4ccccc4)o3)o2)c(O)c1-c1c(OC)cccc1OC 0.01 to 10 nM

And for CCCCc1nc(O)c(-c2nnc(-c3cnccn3)o2)c(O)c1-c1c(OC)cccc1OC ? 100 to 300 nM

Subsequent entry: CCCCc1nc(O)c(-c2nnc(CNC(=O)c3ccccc3)o2)c(O)c1-c1c(OC)cccc1OC 0.01 to 10 nM

Input CCOCc1nc(O)c(-c2nnc(Cc3ccc(Cl)nc3)o2)c(O)c1-c1c(OC)cc(F)cc1OC 0.01 to 10 nM
